# Assay System: Receptor-type tyrosine-protein kinase FLT3 (Homo sapiens, UniProt P36888, D835Y)
# Procedure Details: Inhibition of human recombinant His-tagged FLT3/D835Y mutant expressed in baculovirus expression system incubated for 30 mins in presence of ATP by HTRF analysis
pIC50: −log10 of the molar value.
Known pIC50 of a selection of compounds
Assay Endpoint: pIC50

[
  {
    "Smiles Str": "COc1ccc2c(c1)/C(=C1/Nc3ccccc3/C1=N\\OCC(=O)N1CCNCC1)C(=O)N2",
    "Experimental Value": 8.79
  },
  {
    "Smiles Str": "O=C1Nc2ccc(Cl)cc2/C1=C1/Nc2ccccc2/C1=N\\OCC(=O)N1CCNCC1",
    "Experimental Value": 9.70
  },
  {
    "Smiles Str": "CN1CC[C@H](NC(=O)CO/N=C2/C(=C3/C(=O)Nc4ccccc43)Nc3ccccc32)C1",
    "Experimental Value": 8.72
  },
  {
    "Smiles Str": "CN1CC[C@@H](NC(=O)CO/N=C2/C(=C3/C(=O)Nc4ccccc43)Nc3ccccc32)C1",
    "Experimental Value": 8.66
  },
  {
    "Smiles Str": "O=C1Nc2ccccc2/C1=C1/Nc2ccccc2/C1=N\\OCCC(=O)N1CCNCC1",
    "Experimental Value": 8.54
  }
]
